- EXPERIMENTAL DETAILS: chemical genetic growth profiling, strain panel (AID 1159580);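 further: tested at 20 µM; growth read once vehicle control cultures reached saturation at 30 °C; 1 = growth at the plate median or of vehicle wells; lower values mean less growth of the strain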
- CONDITION NOTES: S. cerevisiae deletion strains, growth OD, locus YEL061C, strain CIN8 (second series), hits give low values
Hit rate of the full screen: of about 5,500 compounds, about 2,000 (36%) were called active. Another 18% or so got no clear call; they are omitted. This is one part of the list.
MEASURED ENDPOINT: normalized growth
Give the figure only, with no unit attached.

Form: molecule = Oc1cc2c(cc1O)C(c1ccccc1)CNCC2 (configuration not stated) ; normalized growth = 0.99

normalized growth reported for this molecule C[C@H]1C(=O)CCC2[C@]3(C)CC[C@@]4(C)C5CC(C)(C)CC[C@]5(C)CC[C@]4(C)C3CC[C@@]21C (some centres not stated) : 1.01

Notebook: `O=C(O)[C@H]1/C(=C/CO)O[C@@H]2CC(=O)N21` , normalized growth read as 0.986

Note to self: normalized growth recorded for `O=C1C=CC(=O)c2c(O)c(Cl)c(Cl)c(O)c21` was 0.0685

Sure, the documented normalized growth for CC(NC(C)(C)C)C(=O)c1cccc(Cl)c1 (configuration not stated) is 1

According to the records, this molecule `Cc1cc(O)c2c(c1)C(=O)c1cccc(O)c1C2=O` displays normalized growth of 0.99

Recorded normalized growth (molecule `O=C1C=CC(=O)c2ccccc21` ): 0.0717

The recorded normalized growth for entry CC(=O)O[C@H]1CC2CCC3C(CC[C@@]4(C)C3C[C@H]([N+]3(C)CCCCC3)[C@@H]4OC(C)=O)[C@@]2(C)C[C@@H]1N1CCCCC1 (some centres not stated) equals 1.03

Just so you know, measured normalized growth for `COc1ccc(-c2c(O)c3c(OC)c4c(cc3oc2=O)OC(C)(C)C=C4)cc1` came out at 0.957

Kindly note the recorded normalized growth for C[N+]12CCC(CC1)C(OC(=O)C(O)(c1ccccc1)c1ccccc1)C2 (configuration not stated) , which is 0.987

Reported normalized growth for `CC(C)[C@@H]1CC[C@@H](C)CC1=O` was 0.989

Looking up O=C(O)C1=C(CSc2nnnn2CS(=O)(=O)O)CS[C@@H]2C(NC(=O)[C@H](O)c3ccccc3)C(=O)N12 (some centres not stated) , I found its normalized growth recorded as 0.972

// recorded normalized growth for `O=c1c(O)c(-c2ccccc2)oc2cc(O)ccc12` : 0.915

Reported normalized growth for `O=C1c2cccc(O)c2C(=O)c2c(O)cccc21` was 0.957

Notebook: `CC(C)[C@@H]1CC[C@@H](C)C[C@H]1OC(=O)c1ccccc1` , normalized growth read as 1.01

`CCC[C@@H]1C[C@@H](C(=O)N[C@H]([C@H]2O[C@H](SC)[C@H](O)[C@@H](O)[C@H]2O)[C@H](C)O)N(C)C1` yielded normalized growth of 0.962

molecule C=C(C)C1Cc2c(ccc3c(=O)c4c(oc23)COc2cc(OC)c(OC)cc2-4)O1 (configuration not stated) , normalized growth observed: 1

Sure, the documented normalized growth for `O=C1C=CC(=O)c2c(O)cccc21` is 0.983

Value of normalized growth reported for the molecule CC12CCC(O)CC1CCc1ccccc12 (configuration not stated) is 0.964

Measured normalized growth of COc1ccccc1OCC(O)COC(N)=O (configuration not stated) : 0.984

Reported normalized growth ( `O=c1c(O)c(-c2ccc(O)cc2)oc2ccccc12` ) = 0.885

Value of normalized growth reported for the molecule `COc1cc([C@@H]2c3cc4c(cc3[C@H](O)[C@H]3COC(=O)[C@H]23)OCO4)cc(OC)c1OC` is 1.01
